# System name: Signal transducer and activator of transcription 1-alpha/beta (Homo sapiens)
# Assay: STAT3 activation with BCL3 mRNA and toxicity – cell-based, STAT1 reporter, BCL3 qPCR, cytotoxicity, late-stage follow-up (AID 2049)
# Experimental parameters: STAT1, Activation
Calls of active or inactive are those of the source. No rule for the calls is given here.
Measured attribute: EC50

smiles_code=CCCc1cc(C(=O)Nc2cc(OC)c(Cl)cc2OC)no1 test_result="> 55.7 µM (inactive)"
smiles_code=Nc1c(C(=O)Nc2ccccc2)noc1C(=O)c1ccccc1 test_result="> 55.7 µM (inactive)"
smiles_code=CN(C(=O)c1cc(C2CC2)on1)c1ccccc1 test_result="> 55.7 µM (inactive)"
smiles_code=COc1cc(NC(=O)c2cc(C3CC3)on2)cc(OC)c1 test_result=inactive
smiles_code=COc1cc(NC(=O)c2cc(C)on2)c(OC)cc1Cl test_result="> 55.7 µM (inactive)"
smiles_code=COc1cccc(NC(=O)c2cc(C3CC3)on2)c1 test_result="5.23 µM"
smiles_code=COc1ccc(Cl)cc1NC(=O)c1cc(C2CC2)on1 test_result="> 55.7 µM (inactive)"
smiles_code=COc1ccccc1NC(=O)c1cc(-c2ccccc2)on1 test_result=inactive
smiles_code=COc1cc(NC(=O)c2cc(C3CC3)on2)ccc1Br test_result=inactive
smiles_code=COc1cc(OC)c(NC(=O)c2cc(CN3CCCC3)on2)cc1Cl test_result="> 55.7 µM (inactive)"
smiles_code=COc1cc(NC(=O)c2cc(C(C)C)on2)c(OC)cc1Cl test_result="> 55.7 µM (inactive)"
smiles_code=COc1cc(NC(=O)c2cc(C3CC3)on2)c(OC)cc1Cl test_result="> 55.7 µM (inactive)"
smiles_code=O=C(Nc1ccccc1Cl)c1cc(C2CC2)on1 test_result="3.05 µM"
smiles_code=COc1ccc(OC)c(NC(=O)c2cc(CN3CCCC3)on2)c1 test_result="> 55.7 µM (inactive)"
